Data provenance is paper PMC2970562.

target: human 15-PGDH (Homo sapiens); construct: comprising residues 3–256 of the human HPGD gene (GenBank identifier: 1203982); His6 (GHHHHHH, behind the TEV site) (C, cleaved yes); made in house; host or cells: E. coli BL21(DE3)-R3; test: qHTS and 24-point re-test: fluorescence assay of NAD+ reduction to NADH on PGE2 oxidation (PubChem AID 894); format: biochemical; conditions: potency in 24-point titrations on re-test; 20 nM 15-PGDH, 1 mM NAD+, 30 µM PGE2, pH 8.0; read-out: qHTS IC50
pIC50: −log10 of the molar value.
Measured pIC50 accompanies every entry in the list below.

compound | pIC50
O=C(C=Cc1ccco1)Nc1cc(Cl)c(O)c(Cl)c1 [Compound 43] | 6.40
C=CCOC12Oc3ccc(Oc4ccc(OC)c(C=O)c4)cc3C3C(CCCCO)C(CCCCO)C=C(C(=NOCC)CC1N(CCC)C(=O)OCCOCc1ccccc1)C32 (stereo not drawn) [Compound 14] | 6.60
CCCC(CCCCCCC(=O)c1cn(CCCC(=O)OCC)c2ccccc12)c1ccc(CC(C)C)cc1 (stereo not drawn) [Compound 34] | 6.10
CC1CCCN(C(=O)c2ccc(COc3ccccc3Br)cc2)C1 (stereo not drawn) [Compound 11] | 6.90
O=c1c2ccccc2sn1-c1cc(S(=O)(=O)N2CCOCC2)ccc1N1CCCC1 [Compound 71] | 5.60
C=CCn1c(=NC(=O)c2cc(C)n(C)n2)sc2cc(Cl)ccc21 [Compound 66] | 6.45
CC1=NOC(=O)C1=Cc1ccc(-c2cc(Cl)ccc2Cl)o1 [Compound 62] | 6.35
COc1ccc(CNC(=O)CCn2c(-c3cccc(C)c3)n[nH]c2=S)cc1 [Compound 65] | 6.20
COc1ccc(C(=O)c2ccccc2O)c(O)c1 [Compound 85] | 6.00

----------
Target sequence: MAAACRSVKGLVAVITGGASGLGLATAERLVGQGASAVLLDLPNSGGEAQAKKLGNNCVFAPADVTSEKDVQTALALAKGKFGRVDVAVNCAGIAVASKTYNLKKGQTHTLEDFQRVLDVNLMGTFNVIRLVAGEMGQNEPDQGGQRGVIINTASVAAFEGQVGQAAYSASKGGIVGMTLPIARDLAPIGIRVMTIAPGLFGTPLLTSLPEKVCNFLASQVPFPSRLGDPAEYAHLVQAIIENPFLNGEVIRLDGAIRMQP

molecule | IC50
Cc1cccc(-n2cnc3cc(C(=O)N4CCCCC4)ccc32)c1 [Compound 13] | > 57.5 µM

----------
Measured IC50 accompanies every entry in the list below.
molecular target: UniProt:P00352; experiment: Selectivity screen, aldehyde dehydrogenase 1 (PubChem Assay ID 1030); format: biochemical; conditions: top concentration 57.5 µM; PubChem Assay ID 1030; read-out: IC50/nM ALDH1A1
Sequence (P00352 whole entry): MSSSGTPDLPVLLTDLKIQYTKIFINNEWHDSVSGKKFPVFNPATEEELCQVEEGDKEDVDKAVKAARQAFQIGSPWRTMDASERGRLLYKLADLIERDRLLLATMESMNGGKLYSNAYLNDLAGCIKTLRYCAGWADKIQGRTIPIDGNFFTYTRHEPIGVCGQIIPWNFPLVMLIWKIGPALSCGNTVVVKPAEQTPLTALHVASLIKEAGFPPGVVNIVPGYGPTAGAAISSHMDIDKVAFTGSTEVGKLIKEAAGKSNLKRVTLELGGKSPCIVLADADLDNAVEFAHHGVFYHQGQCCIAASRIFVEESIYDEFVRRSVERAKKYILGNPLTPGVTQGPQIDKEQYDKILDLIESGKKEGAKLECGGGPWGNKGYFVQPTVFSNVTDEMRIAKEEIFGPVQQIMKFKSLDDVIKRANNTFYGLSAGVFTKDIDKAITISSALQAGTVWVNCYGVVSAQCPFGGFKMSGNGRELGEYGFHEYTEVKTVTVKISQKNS

cpd smiles | IC50
Cc1cc(-c2nnc3n2CCCCC3)c(C)n1-c1ccccc1 | > 57500 nM
Cc1cccc(-n2cnc3cc(C(=O)N4CCCCC4)ccc32)c1 | 36000 nM
N#Cc1ccccc1CSc1nc2cc(Br)c[nH]c-2n1 | > 57500 nM

----------
biological target: human 15-PGDH (Homo sapiens, UniProt P15428); construct: comprising residues 3–256 of the human HPGD gene (GenBank identifier: 1203982); His6 (GHHHHHH, behind the TEV site) (C, cleaved yes); made in house; host or cells: E. coli BL21(DE3)-R3; test: Differential scanning fluorimetry (DSF), thermal stabilization; type: binding; conditions: with 200 µM NADH; 1 µM protein, compound 50 or 250 µM; N/A = no unfolding transition observed in DSF
Sequence (P15428 3-256): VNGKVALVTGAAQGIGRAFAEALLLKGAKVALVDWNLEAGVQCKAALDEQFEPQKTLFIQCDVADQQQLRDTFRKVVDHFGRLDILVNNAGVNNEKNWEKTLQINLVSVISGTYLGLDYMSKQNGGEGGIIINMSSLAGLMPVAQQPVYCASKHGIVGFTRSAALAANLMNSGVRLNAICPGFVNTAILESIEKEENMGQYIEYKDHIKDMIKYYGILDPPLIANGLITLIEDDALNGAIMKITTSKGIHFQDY

molecule | quantity unit | ∆Tm [°C] NADH
CCCCCCOCCCCc1ccc(-c2ccc(OCCCCCCC3CC3)nc2)nn1 | °C | 6.7
O=c1c2ccccc2sn1-c1cc(S(=O)(=O)N2CCOCC2)ccc1N1CCCC1 | °C | -0.4
Cc1cc(NC(=O)COC(=O)c2cccc(S(=O)(=O)NC(C)(C)C)c2)no1 | °C | 7.8
COc1ccc(NS(=O)(=O)Cc2ccccc2Cl)cc1 | °C | 4.8
Cc1ccc(-c2nnc(S)n2N=CC=Cc2ccccc2[N+](=O)[O-])cc1 | °C | 0.2
COc1ccc(CNC(=O)CCn2c(-c3cccc(C)c3)n[nH]c2=S)cc1 | °C | -0.2
CC1CCCN(C(=O)c2ccc(COc3ccccc3Br)cc2)C1 (stereo not drawn) | °C | 10.6
CNC(C)C(O)c1ccccc1.O=S(=O)(O)O (stereo not drawn) | °C | -0.1
N#Cc1ccccc1CSc1nc2cc(Br)c[nH]c-2n1 | °C | 2.9
C=CCn1c(=NC(=O)c2cc(C)n(C)n2)sc2cc(Cl)ccc21 | °C | -0.7
C[C@H]1CCCCN1C(=O)CSc1nnc(-c2ccccc2F)o1 | °C | 4.4
CCCC(NC(=O)Cn1c(-c2cccs2)n[nH]c1=S)c1ccccc1 (stereo not drawn) | °C | 1.6
Cc1cc([N+](=O)[O-])c2c(c1C)[C@@H]1C=CC[C@@H]1C(c1cccc(Cl)c1)N2 (stereo partly drawn) | °C | 5.0
CC(C)(C)OC(=O)NC(Cc1csc2ccccc12)C(=O)CCc1cc(C(F)(F)F)cc(C(F)(F)F)c1 (stereo not drawn) | °C | 1.7
Cc1ccc2cc3c(N)c(C(=O)N4CCC(C)CC4)sc3nc2c1 | °C | 3.3
C=C(C(=O)OC)C1CCC2(C)C(OC(=O)C(Cc3ccc(O)cc3)OC(=O)C(O)C(C)C)CCC(O)(COC3OC(CO)C(O)C(O)C3O)C2C1O (stereo not drawn) | °C | 6.0
COC(=O)c1cc(CNC(=O)C2(c3ccc(Cl)cc3)CC2)ccc1OC | °C | 7.9
Cc1cccc(-n2cnc3cc(C(=O)N4CCCCC4)ccc32)c1 | °C | 13.5
O=C(O)CC1(CO)CC1 | °C | 7.8
CCCC(CCCCCCC(=O)c1cn(CCCC(=O)OCC)c2ccccc12)c1ccc(CC(C)C)cc1 (stereo not drawn) | °C | 6.4
CCCCCCCCNCCOCCOCCOCCOCCNCCCCCCCC | °C | 4.8
CN(C)C(=O)C(NCCc1c[nH]c2ccccc12)c1ccccc1 (stereo not drawn) | °C | 8.4
COc1ccc(C2C(C(=O)O)c3ccccc3C(=O)N2Cc2ccccc2)cc1 (stereo not drawn) | °C | 2.2
COc1ccc(C(=O)OCC(=O)Nc2c(C)cccc2C)cc1S(=O)(=O)N(C)C | °C | 1.6
Cc1ccccc1C(=O)N1CCc2ccccc2C1 | °C | 2.2
Brc1ccc(-c2cc3n(n2)CCc2nc4ccccc4n2-3)cc1 | °C | 4.7
Cc1cc(C(=O)N2CCN(C)CC2)c(C)n1C1CC1 | °C | 1.7
C=CCOC12Oc3ccc(Oc4ccc(OC)c(C=O)c4)cc3C3C(CCCCO)C(CCCCO)C=C(C(=NOCC)CC1N(CCC)C(=O)OCCOCc1ccccc1)C32 (stereo not drawn) | °C | 7.8
Fc1ccccc1CSc1nc2cc(Br)cnc2[nH]1 | °C | 1.5
COc1ccccc1C(=O)Nc1ccc(C(=O)N2CCCC2)cc1 | °C | 4.7
CN(Cc1cccc(Cl)c1)c1ccc(S(C)(=O)=O)cc1S(C)(=O)=O | °C | 7.1
CN(CCc1ccccn1)CC(=O)Nc1ccc(OC(F)(F)F)cc1 | °C | -7.6
Cc1cc(-c2nnc3n2CCCCC3)c(C)n1-c1ccccc1 | °C | 10.5
COc1ccccc1NS(=O)(=O)c1cc(C(=O)N2CCC2)ccc1C | °C | 6.4
O=C(c1ccc(N2C(=O)C3CC=C(Cl)CC3C2=O)cc1)N1CCCCC1 (stereo not drawn) | °C | 6.1
Cc1ccc(C2=NC(=CN3CCOCC3)C(=O)O2)cc1 | °C | 3.9

----------
Measured ∆Tm [°C] NAD+ accompanies every entry in the list below.
Target: human 15-PGDH (Homo sapiens)
Construct: comprising residues 3–256 of the human HPGD gene (GenBank identifier: 1203982); His6 (GHHHHHH, behind the TEV site) (C, cleaved yes); made in house; host or cells: E. coli BL21(DE3)-R3
Assay: Differential scanning fluorimetry (DSF), thermal stabilization
Assay type: binding
Conditions: with 200 µM NAD+; 1 µM protein, compound 50 or 250 µM; N/A = no unfolding transition observed in DSF
Method: A correlation between the ΔTm and the inhibitory potency has been shown in a number of protein-ligand systems, particularly for kinases [32]–[34]. Studies to assess the thermal stability of human 15-PGDH in presence of compounds were performed as described previously, with variations. […] Heat denaturation curves were recorded using a RT-PCR instrument (Mx3005p, Agilent) applying a temperature gradient of 2°C/min. […]

compound | ∆Tm [°C] NAD+, °C
N#Cc1ccccc1CSc1nc2cc(Br)c[nH]c-2n1 | 12.2
CC1CCCN(C(=O)c2ccc(COc3ccccc3Br)cc2)C1 (stereo not shown) | 3.8
C=C(C(=O)OC)C1CCC2(C)C(OC(=O)C(Cc3ccc(O)cc3)OC(=O)C(O)C(C)C)CCC(O)(COC3OC(CO)C(O)C(O)C3O)C2C1O (stereo not shown) | 1.7
CNC(C)C(O)c1ccccc1.O=S(=O)(O)O (stereo not shown) | 1.5
